Assay: Induction of autophagy in human H4-LC3 cells assessed as number of spots of LC3-GFP after 4 hrs by DAPI staining
Format: functional, cell-based
property.measured: EC50

// below: answered compounds
| compound.smiles | EC50 |
| --- | --- |
| Fc1ccc(C(CCCN2CCC(n3nnc4ccccc43)CC2)c2ccc(F)cc2)cc1 | > 50 µM |
| Fc1ccc(C(CCCN2CCC(c3noc4cc(F)ccc34)CC2)c2ccc(F)cc2)cc1 | > 50 µM |

Attention now shifts to the item below.
I'd like to know its EC50. The compound in question is `O=c1sc2ccccc2n1C1CCN(CCCC(c2ccc(F)cc2)c2ccc(F)cc2)CC1`
> 50 µM

The origin of these recorded values is ChEMBL document CHEMBL3217438.
